Biological target: human GPR119 (hGPR119) (Homo sapiens)
Sequence (Q8TDV5 1-335): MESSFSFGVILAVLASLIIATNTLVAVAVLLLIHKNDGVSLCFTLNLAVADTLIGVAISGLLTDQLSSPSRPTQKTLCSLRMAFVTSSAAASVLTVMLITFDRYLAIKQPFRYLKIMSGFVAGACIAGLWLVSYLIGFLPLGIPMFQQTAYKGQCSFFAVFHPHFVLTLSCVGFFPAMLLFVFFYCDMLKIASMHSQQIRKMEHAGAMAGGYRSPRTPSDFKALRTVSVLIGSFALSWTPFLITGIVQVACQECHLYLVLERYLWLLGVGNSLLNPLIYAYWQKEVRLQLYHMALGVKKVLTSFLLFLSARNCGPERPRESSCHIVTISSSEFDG
Experiment: cAMP accumulation assay (cAMP Gs dynamic HTRF kit)
Conditions: CHO-K1 cells stably expressing hGPR119; cAMP accumulation; 4-parameter fit
pEC50: −log10 of the molar value.
Measurement Kind: pEC50

[[record]]
compound = "O=C(Cc1ccc(OCCCC2CC23CCN(c2ncc(Cl)cn2)CC3)cc1F)N1CC(CNC[C@H](O)[C@@H](O)[C@H](O)[C@H](O)CO)C1 (stereo partly drawn) [Example 142]"
test_system = "human GPR119 (hGPR119) (Homo sapiens)"
result = "6.00 to 7.00"

[[record]]
compound = "NCCOCCOCCNCC1CN(C(=O)Cc2ccc(OCCCC3CCN(c4ncc(Cl)cn4)CC3)cc2F)C1 [Example 52]"
test_system = "human GPR119 (hGPR119) (Homo sapiens)"
result = "6.00 to 7.00"

[[record]]
compound = "O=C(Cc1ccc(OCCC[C@@H]2[C@H]3CN(c4ncc(Cl)cn4)C[C@@H]23)cc1F)N1CC(CNC[C@H](O)[C@@H](O)[C@H](O)[C@H](O)CO)C1 [Example 113]"
test_system = "human GPR119 (hGPR119) (Homo sapiens)"
result = "6.00 to 7.00"

[[record]]
compound = "O=C(CC1CN(C(=O)Cc2c(F)cc(OCCCC3CCN(c4ncc(Cl)cn4)CC3)cc2F)C1)NCC(O)(CO)CO [Example 34]"
test_system = "human GPR119 (hGPR119) (Homo sapiens)"
result = "≥ 7.00"

[[record]]
compound = "CCOc1cnc(N2CCC(CCCOc3cc(F)c(CC(=O)N4CC(CNC[C@H](O)[C@@H](O)[C@H](O)[C@H](O)CO)C4)c(F)c3)CC2)nc1 [Example 114]"
test_system = "human GPR119 (hGPR119) (Homo sapiens)"
result = "≥ 7.00"

[[record]]
compound = "O=C(CC1CN(C(=O)Cc2ccc(OCCCC3CCN(c4ncc(Cl)cn4)CC3)cc2F)C1)NC(CO)(CO)CO [Example 32]"
test_system = "human GPR119 (hGPR119) (Homo sapiens)"
result = "6.00 to 7.00"


###

Biological target: human GPR119 (hGPR119) (Homo sapiens, UniProt Q8TDV5)
Construct: expressed in transfected cells
Sequence (Q8TDV5 1-335): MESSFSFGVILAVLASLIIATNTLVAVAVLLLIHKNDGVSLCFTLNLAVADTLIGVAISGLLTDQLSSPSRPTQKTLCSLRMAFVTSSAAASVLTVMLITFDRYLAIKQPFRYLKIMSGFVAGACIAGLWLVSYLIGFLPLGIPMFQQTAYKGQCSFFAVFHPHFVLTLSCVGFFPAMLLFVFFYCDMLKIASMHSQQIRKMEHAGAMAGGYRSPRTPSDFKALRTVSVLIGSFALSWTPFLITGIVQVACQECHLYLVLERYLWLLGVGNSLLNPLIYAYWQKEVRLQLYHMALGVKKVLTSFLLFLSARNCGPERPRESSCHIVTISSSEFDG
Assay: cAMP accumulation assay (cAMP Gs dynamic HTRF kit)
Assay type: cell-based
Settings: 1 h; CHO-K1 cells stably expressing hGPR119; % activity normalized to Max/Min controls; 4-parameter fit
Emax: recorded values
Measurement Kind: Emax

[[record]]
compound = "O=C(NC[C@H](O)[C@@H](O)[C@H](O)[C@H](O)CO)[C@H]1CCN(C(=O)Cc2ccc(OCCCC3CCN(c4ncc(Cl)cn4)CC3)cc2F)C1"
measurement_kind = "Emax"
result = "≥ 130%"

[[record]]
compound = "O=C(NC(CO)(CO)CO)[C@@H]1CCN(C(=O)Cc2ccc(OCCCC3CCN(c4ncc(Cl)cn4)CC3)cc2F)C1"
measurement_kind = "Emax"
result = "100 to 130%"

[[record]]
compound = "O=C(Cc1ccc(OCC[C@@H]2C[C@@H]2C2CCN(c3ncc(Cl)cn3)CC2)cc1F)N1CC(CNC[C@H](O)[C@@H](O)[C@H](O)[C@H](O)CO)C1"
measurement_kind = "Emax"
result = "100 to 130%"

[[record]]
compound = "O=C(Cc1c(F)cc(OCCCCC2CCN(c3ncc(Cl)cn3)CC2)cc1F)N1CC(CNC[C@H](O)[C@@H](O)[C@H](O)[C@H](O)CO)C1"
measurement_kind = "Emax"
result = "≥ 130%"

[[record]]
compound = "COCc1cnc(N2CCC([C@H]3C[C@H]3CCOc3ccc(CC(=O)N4CC[C@@H](CNCC(O)(CO)CO)C4)c(F)c3)CC2)nc1"
measurement_kind = "Emax"
result = "100 to 130%"

[[record]]
compound = "O=C(Cc1ccc(OCCCC2CCN(c3ncc(Cl)cn3)CC2)cc1F)N1CC(CN2C[C@@H](O)[C@@H](O)C2)C1"
measurement_kind = "Emax"
result = "100 to 130%"

[[record]]
compound = "CCOc1cnc(N2CCC(CCCOc3ccc(CC(=O)N4CC[C@@H](CNCC(CO)(CO)CO)C4)c(F)c3)CC2)nc1"
measurement_kind = "Emax"
result = "100 to 130%"

[[record]]
compound = "CCc1cnc(N2CCC(CCCOc3cc(F)c(CC(=O)NC(CO)(CO)CO)c(F)c3)CC2)nc1"
measurement_kind = "Emax"
result = "100 to 130%"

[[record]]
compound = "O=C(CC1CN(C(=O)Cc2ccc(OCCCC3CCN(c4ncc(Cl)cn4)CC3)cc2F)C1)NCC(O)(CO)CO"
measurement_kind = "Emax"
result = "≥ 130%"

[[record]]
compound = "O=C(Cc1ccc(OCCCC2CCN(c3ncc(Cl)cn3)CC2)cc1F)N1CC(CCNCC(CO)CO)C1"
measurement_kind = "Emax"
result = "100 to 130%"

[[record]]
compound = "O=C(CC1CN(C(=O)Cc2ccc(OCCCC3CCN(c4ncc(Cl)cn4)CC3)cc2F)C1)NCCCCS(=O)(=O)O"
measurement_kind = "Emax"
result = "100 to 130%"

[[record]]
compound = "O=C(Cc1ccc(OCCCC2CCN(c3ncc(Cl)cn3)CC2)cc1F)N1CCC(O)(CNCC(CO)(CO)CO)CC1"
measurement_kind = "Emax"
result = "100 to 130%"

[[record]]
compound = "O=C(Cc1ccc(OCCCC2CCN(C(=O)OC3(C(F)(F)F)COC3)CC2)cc1F)N1CC(CNC[C@H](O)[C@@H](O)[C@H](O)[C@H](O)CO)C1"
measurement_kind = "Emax"
result = "100 to 130%"

[[record]]
compound = "O=C(Cc1c(F)cc(OCCCC2CCN(c3ncc(Cl)cn3)CC2)cc1F)N1CC[C@@H](CNC[C@H](O)[C@@H](O)[C@H](O)[C@H](O)CO)C1"
measurement_kind = "Emax"
result = "100 to 130%"

[[record]]
compound = "O=C(Cc1ccc(OCCCC2CCN(c3ncc(Cl)cn3)CC2)cc1F)N1CC[C@@H](CNCC(O)(CO)CO)C1"
measurement_kind = "Emax"
result = "≥ 130%"

[[record]]
compound = "O=C(Cc1c(F)cc(OCCCC2CC23CCN(c2ncc(Cl)cn2)CC3)cc1F)N1CC(CNC[C@H](O)[C@@H](O)[C@H](O)[C@H](O)CO)C1 (some centres unmarked)"
measurement_kind = "Emax"
result = "100 to 130%"

[[record]]
compound = "O=C(Cc1c(F)cc(OCCC2CC(C3CCN(c4ncc(Cl)cn4)CC3)C2)cc1F)N1CC(CNC[C@H](O)[C@@H](O)[C@H](O)[C@H](O)CO)C1 (some centres unmarked)"
measurement_kind = "Emax"
result = "100 to 130%"

[[record]]
compound = "CC1(CCCCOc2ccc(CC(=O)N3CC(CNC[C@H](O)[C@@H](O)[C@H](O)[C@H](O)CO)C3)c(F)c2)CCN(c2ncc(Cl)cn2)CC1"
measurement_kind = "Emax"
result = "100 to 130%"

[[record]]
compound = "O=C(Cc1ccc(OCCCC2CCN(c3ncc(Cl)cn3)CC2)cc1F)N1CC(CCNC(CO)CO)C1"
measurement_kind = "Emax"
result = "100 to 130%"

[[record]]
compound = "NS(=O)(=O)CCCCNC(=O)Cc1ccc(OCCCC2CCN(c3ncc(Cl)cn3)CC2)cc1F"
measurement_kind = "Emax"
result = "≥ 130%"

[[record]]
compound = "O=C(Cc1ccc(OCCCC2CCN(c3ncc(Cl)cn3)CC2)cc1F)N1CCC(O)(CNC[C@H](O)[C@H](O)[C@H](O)CO)C1 (some centres unmarked)"
measurement_kind = "Emax"
result = "≥ 130%"

[[record]]
compound = "O=C(Cc1c(F)cc(OCCCC2CCN(c3ncc(Cl)cn3)CC2)cc1F)NC(CO)(CO)CO"
measurement_kind = "Emax"
result = "100 to 130%"

[[record]]
compound = "O=C(Cc1ccc(OCCCC2CCN(c3ncc(Cl)cn3)CC2)cc1F)N1CC[C@@H](CNCC(CO)(CO)CO)C1"
measurement_kind = "Emax"
result = "100 to 130%"

[[record]]
compound = "O=C(CC1CN(C(=O)Cc2c(F)cc(OCCCC3CCN(c4ncc(Cl)cn4)CC3)cc2F)C1)NCC(O)(CO)CO"
measurement_kind = "Emax"
result = "≥ 130%"

[[record]]
compound = "CCc1cnc(N2CCC(CCCOc3ccc(CC(=O)N4CC(CNCCNC(=O)NC(CO)(CO)CO)C4)c(F)c3)CC2)nc1"
measurement_kind = "Emax"
result = "100 to 130%"

[[record]]
compound = "O=C(NCCNCCC1CN(C(=O)Cc2ccc(OCCCC3CCN(c4ncc(Cl)cn4)CC3)cc2F)C1)NC(CO)(CO)CO"
measurement_kind = "Emax"
result = "≥ 130%"

